# experiment_summary: Absorption test by oral administration in rats (plasma concentration)
# Type: in vivo
# test_context: rat, rats (n=4), 10 mg/kg oral, 1 hr, read-out: Concentration of the compound in plasma
property: concentration at 1 h (ng/mL)
Please reply with the bare figure in ng/mL and do not write the unit itself.

Entry CCCC[C@H](NC(=O)C(Cc1cccc2ccccc12)CS(=O)(=O)CC)C(=O)N[C@@H](CC1CCCCC1)[C@@H](O)[C@H](O)CN1CCOCC1 (mixture of isomers) — recorded concentration at 1 h = 183

---

# experiment_summary: Absorption test by oral administration in rats (plasma concentration)
# Type: in vivo
# test_context: rat, rats (n=4), 10 mg/kg oral, 1/12 hrs, read-out: Concentration of the compound in plasma
property: concentration at 5 min (ng/mL)
Please reply with the bare figure in ng/mL and do not write the unit itself.

Entry CCCC[C@H](NC(=O)C(Cc1cccc2ccccc12)CS(=O)(=O)CC)C(=O)N[C@@H](CC1CCCCC1)[C@@H](O)[C@H](O)CN1CCOCC1 (mixture of isomers) — recorded concentration at 5 min = 89

---

# measured_target: human plasma renin (Homo sapiens)
# Sequence (P00797 67-406): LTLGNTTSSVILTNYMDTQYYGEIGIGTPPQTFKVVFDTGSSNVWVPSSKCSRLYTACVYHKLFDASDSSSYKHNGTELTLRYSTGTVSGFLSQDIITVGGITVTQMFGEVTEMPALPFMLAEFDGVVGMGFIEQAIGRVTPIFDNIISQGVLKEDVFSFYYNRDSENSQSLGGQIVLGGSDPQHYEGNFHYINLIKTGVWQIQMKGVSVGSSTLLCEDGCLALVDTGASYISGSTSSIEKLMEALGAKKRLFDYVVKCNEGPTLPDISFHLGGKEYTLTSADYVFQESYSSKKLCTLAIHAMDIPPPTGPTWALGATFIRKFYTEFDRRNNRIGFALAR
# experiment_summary: Renin inhibiting activities (human plasma, angiotensin I by radioimmunoassay)
# test_context: pH7.4, 37° C., one hour
Below, each entry is listed with its recorded IC50.
Please reply with the bare figure in nM and do not write the unit itself.

Look over these answered cases.
- CCCC[C@H](NC(=O)C(Cc1cccc2ccccc12)CS(=O)(=O)CC)C(=O)N[C@@H](CC1CCCCC1)[C@@H](O)[C@H](O)CN1CCOCC1 (mixture of isomers) [Example 16]: 3.4
- CCCC[C@H](NC(=O)[C@H](Cc1cccc2ccccc12)CS(=O)(=O)CC)C(=O)N[C@@H](CC1CCCCC1)C(O)C(O)CSC (single isomer, unassigned) [Example 21]: 8.9
- CCCC[C@H](NC(=O)C(CCCSCC)Cc1cccc2ccccc12)C(=O)N[C@@H](CC(C)C)[C@@H](O)CC(CC)C(=O)NCC(C)C (single isomer, unassigned) [Example 12]: 9.7
- CCCC[C@H](NC(=O)C(Cc1cccc2ccccc12)CS(=O)(=O)c1nnnn1C)C(=O)N[C@@H](CC(C)C)[C@@H](O)C[C@H](CC)C(=O)NCC(C)C (single isomer, unassigned) [Example 4]: 0.96
- CCCC[C@H](NC(=O)C(Cc1ccccc1)CS(=O)(=O)C1CCCC1)C(=O)N[C@@H](CC1CCCCC1)[C@@H](O)[C@@H](O)CN1CCOCC1 (single isomer, unassigned) [Example 51(B)]: 2
- CCCC[C@H](NC(=O)[C@@H](CSc1nncs1)Cc1cccc2ccccc12)C(=O)N[C@@H](CC(C)C)[C@@H](O)CC(CC)C(=O)NCC(C)C (stereo partly shown) [Example 5]: 1.4

Summary line: CCCC[C@H](NC(=O)[C@H](Cc1cccc2ccccc12)CS(=O)(=O)c1ncccn1)C(=O)N[C@@H](CC1CCCCC1)[C@@H](O)[C@@H](O)CN1CCOCC1 [Example 41] , human plasma renin (Homo sapiens), reported IC50 = 1.7

Summary line: CCCC[C@H](NC(=O)[C@H](Cc1cccc2ccccc12)C[S+]([O-])c1ncccn1)C(=O)N[C@@H](CC(C)C)[C@@H](O)CC(CC)C(=O)NCC(C)C (mixture of isomers) [Example 7] , human plasma renin (Homo sapiens), reported IC50 = 0.83

Summary line: CCCC[C@H](NC(=O)[C@H](Cc1cccc2ccccc12)C[S+]([O-])CC)C(=O)N[C@@H](CC1CCCCC1)[C@@H](O)[C@@H](O)CN1CCOCC1 (stereo partly shown) [Example 49(A)] , human plasma renin (Homo sapiens), reported IC50 = 6.1

Summary line: CCCC[C@H](NC(=O)[C@H](Cc1ccccc1)CS(=O)(=O)c1ncccn1)C(=O)N[C@@H](CC1CCCCC1)[C@@H](O)[C@@H](O)CN1CCOCC1 [Example 44] , human plasma renin (Homo sapiens), reported IC50 = 3.8
